# test.system: follicle-stimulating hormone (FSH) receptor (Rattus norvegicus)
# Construct: endogenous in cells
# Sequence (P20395 18-692): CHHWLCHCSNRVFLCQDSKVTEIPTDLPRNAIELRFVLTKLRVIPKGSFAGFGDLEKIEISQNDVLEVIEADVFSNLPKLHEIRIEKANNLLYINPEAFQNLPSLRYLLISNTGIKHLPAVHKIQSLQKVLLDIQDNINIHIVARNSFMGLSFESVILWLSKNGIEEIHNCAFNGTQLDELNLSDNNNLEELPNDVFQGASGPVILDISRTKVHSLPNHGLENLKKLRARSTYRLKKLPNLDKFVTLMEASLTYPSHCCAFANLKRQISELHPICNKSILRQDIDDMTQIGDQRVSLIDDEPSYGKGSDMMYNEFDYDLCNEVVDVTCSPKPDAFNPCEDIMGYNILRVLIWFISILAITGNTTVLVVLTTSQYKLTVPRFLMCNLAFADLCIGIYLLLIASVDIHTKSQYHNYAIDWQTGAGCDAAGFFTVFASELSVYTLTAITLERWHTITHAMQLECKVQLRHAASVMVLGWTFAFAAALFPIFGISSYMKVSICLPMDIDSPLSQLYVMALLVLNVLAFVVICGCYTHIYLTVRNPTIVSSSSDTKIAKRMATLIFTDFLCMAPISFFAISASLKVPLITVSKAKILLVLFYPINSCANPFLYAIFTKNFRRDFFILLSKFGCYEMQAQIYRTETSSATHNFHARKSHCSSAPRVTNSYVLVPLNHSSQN
# assay.summary: Rat granulosa EC50 FSH (Assay B)
Below, each entry is listed alongside its reported EC50.

Q: Lookup: EC50 / follicle-stimulating hormone (FSH) receptor (Rattus norvegicus) / COc1cc2c(cc1-c1cncc(S(N)(=O)=O)c1)-c1c(c(C(=O)N(C)C(C)(C)C)nn1-c1cc(Cl)cc(Cl)c1)CO2 [Compound 66]
A: 0.01 to 0.1 µM

Q: Lookup: EC50 / follicle-stimulating hormone (FSH) receptor (Rattus norvegicus) / COc1cc2c(cc1-c1ccn(C)n1)-c1c(c(C(=O)N(C)C(C)(C)C)nn1-c1cc(F)cc(Cl)c1)CO2 [Compound 27]
A: > 0.5 µM

Q: Lookup: EC50 / follicle-stimulating hormone (FSH) receptor (Rattus norvegicus) / COc1cc2c(cc1-c1cncc(C(N)=O)c1C)-c1c(c(C(=O)N(C)C(C)(C)C)nn1-c1cc(Cl)cc(Cl)c1)CO2 [Compound 116]
A: 0.01 to 0.1 µM

Q: Lookup: EC50 / follicle-stimulating hormone (FSH) receptor (Rattus norvegicus) / COc1cc(OC)cc(-n2nc(C(=O)N3CCOCC3(C)C)c3c2-c2cc(-c4cncc(C#N)c4)c(OC)cc2OC3)c1 [Compound 44]
A: 0.01 to 0.1 µM

Q: Lookup: EC50 / follicle-stimulating hormone (FSH) receptor (Rattus norvegicus) / COC(=O)Cn1nc(C)c(-c2cc3c(cc2OC)OCc2c(C(=O)N(C)C(C)(C)C)nn(-c4cc(Cl)cc(Cl)c4)c2-3)c1C [Compound 138]
A: 0.101 to 0.5 µM

Q: Lookup: EC50 / follicle-stimulating hormone (FSH) receptor (Rattus norvegicus) / COc1cc2c(cc1-c1cnn(CC(=O)O)c1)-c1c(c(C(=O)N3CCOCC3(C)C)nn1-c1cc(F)cc(Cl)c1)CO2 [Compound 84]
A: 0.101 to 0.5 µM

Q: Lookup: EC50 / follicle-stimulating hormone (FSH) receptor (Rattus norvegicus) / CNC(=O)Cn1nc(C)c(-c2cc3c(cc2OC)OCc2c(C(=O)N(C)C(C)(C)C)nn(-c4cc(Cl)cc(Cl)c4)c2-3)c1C [Compound 140]
A: 0.101 to 0.5 µM

Q: Lookup: EC50 / follicle-stimulating hormone (FSH) receptor (Rattus norvegicus) / COc1cc2c(cc1-c1nc[nH]n1)-c1c(c(C(=O)N(C)C(C)(C)C)nn1-c1ccsc1)CO2 [Compound 207]
A: 0.101 to 0.5 µM

Q: Lookup: EC50 / follicle-stimulating hormone (FSH) receptor (Rattus norvegicus) / COc1cc2c(cc1-c1cnn(CC(=O)O)c1)-c1c(c(C(=O)N3CCOCC3(C)C)nn1-c1cc(F)cc(F)c1)CO2 [Compound 88]
A: 0.101 to 0.5 µM

Q: Lookup: EC50 / follicle-stimulating hormone (FSH) receptor (Rattus norvegicus) / COc1cc2c(cc1-c1ccn(C)n1)-c1c(c(C(=O)N3CCC(O)CC3(C)C)nn1-c1ccsc1)CO2 (stereo not shown) [Compound 57]
A: 0.101 to 0.5 µM

Q: Lookup: EC50 / follicle-stimulating hormone (FSH) receptor (Rattus norvegicus) / COc1cc2c(cc1-c1cc(CO)ncc1F)-c1c(c(C(=O)N(C)C(C)(C)C)nn1-c1cc(F)cc(F)c1)CO2 [Compound 75]
A: 0.01 to 0.1 µM

Q: Lookup: EC50 / follicle-stimulating hormone (FSH) receptor (Rattus norvegicus) / COc1cc(OC)cc(-n2nc(C(=O)N3CCOCC3(C)C)c3c2-c2cc(-c4cncc(C(N)=O)c4)c(OC)cc2OC3)c1 [Compound 159]
A: 0.01 to 0.1 µM

Q: Lookup: EC50 / follicle-stimulating hormone (FSH) receptor (Rattus norvegicus) / CNC(=O)Cn1cc(-c2cc3c(cc2OC)OCc2c(C(=O)N(C)C(C)(C)C)nn(-c4cc(Cl)cc(Cl)c4)c2-3)cn1 [Compound 91]
A: 0.01 to 0.1 µM

Numbers sourced from patent US10941152B2.
